# system under test: T1, PUF4 RNA-binding domain (Saccharomyces cerevisiae, UniProt P25339 537-888)
# T1 sequence: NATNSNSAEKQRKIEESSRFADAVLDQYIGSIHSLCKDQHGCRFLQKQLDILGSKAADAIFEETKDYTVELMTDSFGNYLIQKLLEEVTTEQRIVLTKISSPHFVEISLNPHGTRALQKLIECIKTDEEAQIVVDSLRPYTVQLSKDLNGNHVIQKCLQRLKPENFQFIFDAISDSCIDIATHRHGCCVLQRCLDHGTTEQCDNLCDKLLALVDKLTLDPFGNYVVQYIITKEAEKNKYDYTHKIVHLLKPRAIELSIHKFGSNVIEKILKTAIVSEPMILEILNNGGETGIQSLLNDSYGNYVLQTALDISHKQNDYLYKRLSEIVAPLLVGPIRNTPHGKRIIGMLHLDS
# test method notes: Mg; RNA-MaP; 20 mM Na-HEPES pH 7.4, 30 mM KOAc, 0.75 mM MgCl2, 0.1% Tween-20, 5% glycerol, 0.1 mg/mL BSA, 2 mM DTT; 25 C; 0.0125-409.6 nM protein
# condition details: tags: N-His6-TEV cleaved; C-SNAP kept, Cy3B-labelled; label: tethered on chip by stalled RNA polymerase
Listed below: Kd values for each entry.
measure name: Kd (nM)

{"columns": ["binder", "measure name", "readout qualifier", "assay value"],
 "data": [
  ["Id_ii_S4_P4E.3_K4.2_C4.2_[C-2T]_[T-1G]_H4.2_A4.1_F4.1_T4.2_[G10T] (ssRNA) RNA: UUUGACAACUGAUCGUUCUUUCUUGUAUAUAUUAUUUUCUUUCUCGAUCAGUUGUCUUU", "Kd", "=", 1.83],
  ["UCUCUUACUGUAUUAUUAUCUCUCUU (ssRNA) [Id_ii_S1_P5E.2_K5.1_C5.2_[C-2A]_[T-1C]_H5.1_A5.1_F5.1_T5.2_[A12C]]", "Kd", "=", 9.38],
  ["ACAAACCGUAUAUUACAAAC (ssRNA) [Ib_S3_P3E.1_K3.1_C3.1_H3.1_[T1C]_A3.1_F3.1_[A8T]_T3.1]", "Kd", "=", 78.5],
  ["ACAAACUGUCUUAUUAACAAAC (ssRNA) [Ia_S3_P5E.1_K5.1_C5.1_H5.1_[A4C]_A5.1_F5.1_T5.1]", "Kd", "=", 365],
  ["UCUCUUUGUUUUUUAUCUCUU (ssRNA) [Ib_S1_P4E.1_K4.1_C4.1_H4.1_[A4T]_A4.1_[A6T]_F4.1_T4.1]", "Kd", "=", 100],
  ["ACAAACAGUAUAAUUAACAAAC (ssRNA) [Ib_S3_P5E.1_K5.1_C5.1_H5.1_[T1A]_A5.1_[T6A]_F5.1_T5.1]", "Kd", "=", 1740],
  ["Ib_S2_P3E.1_K3.1_C3.1_H3.1_A3.1_[A6G]_F3.1_[T7C]_T3.1 (ssRNA) RNA: UUUGAUUAAUAUGAUAUCGUUCUUUCUUGUAUGCAUUCUUUCUCGAUAUCAUAUUAAUCUUU", "Kd", "=", 198],
  ["Ic_S2_P5E.1_K5.1_C5.1_H5.1_A5.1_[T5A]_[T6A]_[A7T]_F5.1_[T8A]_[T9C]_[A10G]_T5.1 (ssRNA) RNA: UUUGAUUAAUAUGAUAUCGUUCUUUCUUGUAAAUACGUUCUUUCUCGAUAUCAUAUUAAUCUUU", "Kd", "=", 52],
  ["UCUCUUUGUACCAACUCUCUU (ssRNA) [Ic_S1_P4E.1_K4.1_C4.1_H4.1_A4.1_[T5C]_[A6C]_[T7A]_F4.1_[T8A]_[A9C]_T4.1]", "Kd", "=", 271],
  ["UCUCUUGCUUGUAAAUAUAUCUCUU (ssRNA) [Id_iii_S1_P3E.8_K3.4_C3.3_[T-3G]_H3.1_A3.2_F3.1_T3.2]", "Kd", "=", 20.2],
  ["Id_ii_S4_P5E.4_K5.3_C5.2_[T-1C]_H5.3_A5.1_F5.1_T5.2_[A12G] (ssRNA) RNA: UUUGACAACUGAUCGUUCUUUCUCCACACUUAUUAUGUUCUUUCUCGAUCAGUUGUCUUU", "Kd", ">", 2300],
  ["Id_ii_S4_P3E.4_K3.3_C3.2_[C-2G]_H3.3_A3.1_F3.1_T3.2_[A10T] (ssRNA) RNA: UUUGACAACUGAUCGUUCUUUCUGUACACUAUAUUUUCUUUCUCGAUCAGUUGUCUUU", "Kd", "=", 0.57],
  ["Ic_S4_P4E.1_K4.1_C4.1_H4.1_A4.1_[T5C]_[A6C]_F4.1_[T8A]_[A9C]_T4.1 (ssRNA) RNA: UUUGACAACUGAUCGUUCUUUCUUGUACCUACUUCUUUCUCGAUCAGUUGUCUUU", "Kd", "=", 75.8]
]}
